- target: HIV-1 Env of isolate MGRM-D-016 (subtype D) (HIV-1)
- test name: cell-based or functional assay
Each record here notes measured IC50 (neutralization).

Look over these answered cases.
PGT-126 (antibody, V domains shown) VH: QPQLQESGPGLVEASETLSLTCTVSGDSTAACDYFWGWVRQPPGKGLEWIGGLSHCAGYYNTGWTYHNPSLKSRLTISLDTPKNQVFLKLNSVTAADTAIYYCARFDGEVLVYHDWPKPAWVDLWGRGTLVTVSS VL: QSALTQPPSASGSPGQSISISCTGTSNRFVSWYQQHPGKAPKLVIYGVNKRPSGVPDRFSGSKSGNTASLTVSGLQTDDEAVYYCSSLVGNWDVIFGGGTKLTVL :: > 50 µg/mL
PGT-131 (antibody, V domains shown) VH: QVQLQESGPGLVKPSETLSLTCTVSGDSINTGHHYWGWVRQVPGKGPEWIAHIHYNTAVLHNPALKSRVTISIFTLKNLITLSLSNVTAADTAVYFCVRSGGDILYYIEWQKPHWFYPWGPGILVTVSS VL: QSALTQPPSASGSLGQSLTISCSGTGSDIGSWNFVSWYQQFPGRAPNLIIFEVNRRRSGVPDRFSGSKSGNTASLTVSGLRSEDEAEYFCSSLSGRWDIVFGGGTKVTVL :: > 50 µg/mL

Let us move to another entry and its IC50 (neutralization).
Could you share which IC50 (neutralization) value was measured for PGT-128 (antibody, V domains shown) VH: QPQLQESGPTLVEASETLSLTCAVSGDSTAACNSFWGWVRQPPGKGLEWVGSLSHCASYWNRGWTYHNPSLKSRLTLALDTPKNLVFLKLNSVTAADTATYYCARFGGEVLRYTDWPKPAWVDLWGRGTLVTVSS VL: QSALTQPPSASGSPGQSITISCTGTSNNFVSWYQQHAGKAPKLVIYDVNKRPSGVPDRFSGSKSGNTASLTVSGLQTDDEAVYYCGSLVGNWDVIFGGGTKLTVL ? > 50 µg/mL
